Where these numbers come from: patent US20250188176A1

Biological target: T1, Extracellular domain (ECD) of the canine IL-4 receptor alpha-AviTag-His Tag (canine)
T1 construct: expressed in CHO cells; also called canine IL-4RA; canine IL4Ra
T1 chain: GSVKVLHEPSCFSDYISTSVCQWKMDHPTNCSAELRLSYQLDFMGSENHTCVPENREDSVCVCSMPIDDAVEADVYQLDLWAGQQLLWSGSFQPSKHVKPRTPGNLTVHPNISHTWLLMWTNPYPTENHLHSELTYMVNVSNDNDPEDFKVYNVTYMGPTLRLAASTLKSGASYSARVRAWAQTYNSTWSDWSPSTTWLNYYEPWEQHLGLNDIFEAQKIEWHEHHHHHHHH
Experiment: SPR, IgG captured via anti-dog Fc;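 also: biacore T200 SPR with antibodies captured on CM5 chip bearing anti-dog Fc, 120 s association then 600 s dissociation, double-referenced sensorgrams fitted with 1:1 binding model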

binder: FJP05A03-H + GFmix_THS-L (antibody, V domains shown) VH: EVQLVESGGDLVKPGGSLRLSCVASGLPFRDYAMAWVRQAPGKGLQWLSLISGSGGKTYYADAVKGRFTISRDNAKNTLYLQMNSLRAEDTAVYYCAVDRLTKTIRPQYYGLWVWGQGTLVTVSS VL: DIVMTQTPLSLSVSPGETASISCRSSQSLTYSIGYNYLDWYMQKPGQSPQGLIYLGSKRASGVSDRFSGSGSGADFTLKISRVEADDAGVYYCMQGLHSPLGFGQGTKLEIKR
unit symbol: s⁻¹
koff: 8.32e-05
